SYSTEM_UNDER_TEST: Cytochrome P450 1A2 (Homo sapiens, UniProt P05177)
Sequence (P05177 whole entry): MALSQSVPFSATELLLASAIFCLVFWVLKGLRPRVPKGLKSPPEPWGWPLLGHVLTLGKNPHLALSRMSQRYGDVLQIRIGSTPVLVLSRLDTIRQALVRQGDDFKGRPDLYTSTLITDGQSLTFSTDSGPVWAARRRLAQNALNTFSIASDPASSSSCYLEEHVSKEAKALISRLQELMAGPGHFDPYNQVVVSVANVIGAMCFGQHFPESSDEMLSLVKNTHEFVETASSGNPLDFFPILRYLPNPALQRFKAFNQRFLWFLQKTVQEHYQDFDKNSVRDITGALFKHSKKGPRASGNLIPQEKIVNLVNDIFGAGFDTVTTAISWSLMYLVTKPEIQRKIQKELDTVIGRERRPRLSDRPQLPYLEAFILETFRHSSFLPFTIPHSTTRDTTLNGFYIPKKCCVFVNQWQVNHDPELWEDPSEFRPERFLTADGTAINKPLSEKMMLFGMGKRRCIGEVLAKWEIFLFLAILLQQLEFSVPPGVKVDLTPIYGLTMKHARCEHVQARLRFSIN
TEST: Inhibition of recombinant human CYP1A2 by LC-MS/MS analysis
ENDPOINT_LABEL: IC50

Notebook: pull reported IC50 for Cytochrome P450 1A2 (Homo sapiens, UniProt P05177), entry C[C@H]1Cn2cnc(C(=O)N[C@H](C)C(F)(F)F)c2CN1C(=O)Nc1ccc(F)c(C#N)c1 > 30 µM
